B1: VH:VL chains; a variant is named by its letters at X, in order (parent)
chain 1: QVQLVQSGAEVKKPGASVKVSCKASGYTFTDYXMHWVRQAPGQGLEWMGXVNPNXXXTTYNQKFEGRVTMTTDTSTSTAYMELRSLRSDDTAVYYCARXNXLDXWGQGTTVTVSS
chain 2: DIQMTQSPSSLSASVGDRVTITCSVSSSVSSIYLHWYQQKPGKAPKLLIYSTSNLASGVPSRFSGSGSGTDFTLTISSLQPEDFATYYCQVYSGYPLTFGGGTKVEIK

Variants of: B1
MEASUREMENT_DESCRIPTION: yeast display scFab, FACS + sequencing
MEASURED_ATTRIBUTE: non-specific binding call

Give its non-specific binding call value. Item: YRTRDSAS no binding

Give its non-specific binding call value. Item: YRGAGSGD binds

Give its non-specific binding call value. Item: YRARSASA binds

Give its non-specific binding call value. Item: FRGRDSGY binds

Give its non-specific binding call value. Item: FKKKDASV binds

Give its non-specific binding call value. Item: VETEGDGF no binding

Give its non-specific binding call value. Item: VAGTGDWY no binding

Give its non-specific binding call value. Item: DRREGYGA binds

***
Give its non-specific binding call value. Item: YRAGGVAV binds
